Entries and their % change from control at 10 μM
biological target: recombinant rat protein tyrosine phosphatase, PTP1B (rPTP1B) (Rattus norvegicus); type: biochemical; conditions: 10 μM compound, rPTP1B
Sequence (P20417 whole entry): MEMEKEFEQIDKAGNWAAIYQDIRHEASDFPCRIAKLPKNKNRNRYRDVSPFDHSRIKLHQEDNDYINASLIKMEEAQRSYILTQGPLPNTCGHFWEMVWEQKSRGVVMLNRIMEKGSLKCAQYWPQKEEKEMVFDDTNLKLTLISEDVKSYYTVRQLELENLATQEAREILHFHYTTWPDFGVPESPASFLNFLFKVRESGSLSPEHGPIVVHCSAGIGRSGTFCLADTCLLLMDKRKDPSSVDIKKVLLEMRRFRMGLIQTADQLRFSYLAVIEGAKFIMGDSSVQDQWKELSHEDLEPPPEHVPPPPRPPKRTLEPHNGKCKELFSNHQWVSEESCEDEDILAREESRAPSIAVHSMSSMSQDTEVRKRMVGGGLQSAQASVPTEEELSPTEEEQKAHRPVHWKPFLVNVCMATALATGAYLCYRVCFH

Please review the following examples before continuing.
structure_smiles_string | % change from control at 10 μM
CCc1oc2ccc(Cl)cc2c1C(=O)c1cc(Br)c(O)c(Br)c1 | −64 (rPTP1B) %
O=C(c1cc(I)c(O)c(I)c1)c1c(Cc2ccccc2)oc2ccccc12 | −99 (rPTP1B) %
CCc1oc2ccccc2c1C(=O)c1cc(Br)c(O)c(Br)c1O | −64 (rPTP1B) %
CCc1oc2ccccc2c1C(=O)c1cc(I)c(O)c(I)c1 | −60 (rPTP1B) %
CCc1oc2ccccc2c1Cc1cc(Br)c(O)c(Br)c1 | −74 (rPTP1B) %

Problem: Param request: % change from control at 10 μM | system recombinant rat protein tyrosine phosphatase, PTP1B (rPTP1B) (Rattus norvegicus) | item CCCCc1oc2ccccc2c1C(=O)c1cc(Br)c(O)c(Br)c1
Result: −90 (rPTP1B) %

Problem: Param request: % change from control at 10 μM | system recombinant rat protein tyrosine phosphatase, PTP1B (rPTP1B) (Rattus norvegicus) | item O=C(O)COc1c(Br)cc(C(=O)c2c(Cc3ccccc3)oc3ccccc23)cc1Br
Result: −75 (rPTP1B) %

Problem: Param request: % change from control at 10 μM | system recombinant rat protein tyrosine phosphatase, PTP1B (rPTP1B) (Rattus norvegicus) | item O=C(c1cc(Br)c(O)c(Br)c1)c1c(Cc2ccccc2)oc2ccccc12
Result: −81 (rPTP1B) %

Problem: Param request: % change from control at 10 μM | system recombinant rat protein tyrosine phosphatase, PTP1B (rPTP1B) (Rattus norvegicus) | item CCc1oc2ccccc2c1C(=O)c1c(Br)cc(Br)c(O)c1Br
Result: −61 (rPTP1B) %
